Taken from patent US20240376207A1.

// values below are reported NK92 killing of K562, killing activity (%), 4 nM antibody
- experimental_target: T1, human PVRIG expressed on cells (human, UniProt Q6DKI7 41-326)
- T1 sequence (looked up): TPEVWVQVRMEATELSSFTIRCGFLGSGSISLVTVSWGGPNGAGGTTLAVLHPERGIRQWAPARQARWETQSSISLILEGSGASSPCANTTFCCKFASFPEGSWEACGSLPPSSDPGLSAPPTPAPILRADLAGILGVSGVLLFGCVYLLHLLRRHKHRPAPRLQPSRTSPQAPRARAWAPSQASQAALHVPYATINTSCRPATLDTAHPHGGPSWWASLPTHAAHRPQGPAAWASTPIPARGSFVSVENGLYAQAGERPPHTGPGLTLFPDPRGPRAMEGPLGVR
- protocol_notes: cell-based or functional assay
Enter your answer as a number in %; do not include the unit.

Some solved cases for reference:
binder: humanized anti-PVRIG antibody 20H5 (antibody, human IgG4 S228P, F234A L235A, V domains shown) VH: EVQLVESGGGLVQPGGSLRLSCAASGYTSRTDCMGWFRQAPGKEHEGVAHIDSDGIPRYVDSVKGRFTISQDHAKNSLYLQMNSLRAEDTAVYYCVVGFKFDEDYCAPNDWGQGTMVTVSS
assay_value: 9.2

binder: anti-PVRIG antibody 30 (antibody, human IgG4 S228P, F234A L235A, V domains shown, no light chain) VH: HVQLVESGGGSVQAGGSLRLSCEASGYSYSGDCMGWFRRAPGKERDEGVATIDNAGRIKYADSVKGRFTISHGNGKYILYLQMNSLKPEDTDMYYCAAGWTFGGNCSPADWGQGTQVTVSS
assay_value: 10.4

binder: humanized anti-PVRIG antibody 30H2 (antibody, human IgG4 S228P, F234A L235A, V domains shown) VH: EVQLVESGGGLVQPGGSLRLSCAASGFTFSGDCMGWFRQAPGKGLDEGVATIDNAGRIKYADSVKGRFTISRDNAKNSLYLQMNSLRAEDTAVYYCAAGWTFGGQCSPADWGQGTQVTVSS
assay_value: 7.7

Now look at this entry.
According to the records, this binder positive antibody Tab5 (antibody, human IgG4 S228P, kappa, F234A L235A, V domains shown, Variable regions of CPA.7.021 (WO2016134333A1) on human IgG4 (S228P/F234A/L235A/K447A) and human kappa constant regions) VH: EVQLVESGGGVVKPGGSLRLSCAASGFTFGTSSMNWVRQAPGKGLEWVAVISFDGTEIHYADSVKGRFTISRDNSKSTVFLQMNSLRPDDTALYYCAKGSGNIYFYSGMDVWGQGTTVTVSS VL: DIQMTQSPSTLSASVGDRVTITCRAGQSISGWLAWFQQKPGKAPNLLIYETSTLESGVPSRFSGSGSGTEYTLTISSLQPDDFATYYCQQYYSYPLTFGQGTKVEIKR displays NK92 killing of K562, killing activity (%), 4 nM antibody of 5.9
